- run-description: anti-His antibody binders, primary screen, artefact control for SMM control protein annotation, biochemical, small-molecule microarray, 635 nm fluorescence (AID 1128);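 note: score merges feature fluorescence with signal-to-noise for each printed compound spot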
- test-conditions: anti-His Alexa647 antibody binding, higher = more signal
metric: composite z-score
Number only, no unit.

[[record]]
compound = "CC(c1ccccc1)C(O)C1C=CC2C(=O)N(c3ccccc3)C(=O)C2N1Nc1ccc([N+](=O)[O-])cc1 (stereo not drawn)"
result_value = 1.75

[[record]]
compound = "N#Cc1ccc(C(O)C2C=CC3C(=O)N(c4ccccc4)C(=O)C3N2Nc2ccccc2)cc1 (stereo not drawn)"
result_value = 0.269

[[record]]
compound = "COc1ccc([Si](C)(C)[C@H]2[C@H](CCn3cc([C@H](O)c4ccccc4)nn3)O[C@@]3(C(=O)N(Cc4ccc(N5C(=O)c6cccc7cccc5c67)cc4)c4ccccc43)[C@@H]2C)cc1"
result_value = 0.107


Using the record for CCCCCCCCCCC(O)C1C=CC2C(=O)N(C)C(=O)C2N1Nc1ccc([N+](=O)[O-])cc1[N+](=O)[O-] (stereo not drawn) , report its composite z-score.
1.38

Continue with COC(=O)c1nc2oc1CC[C@@H](CO)NC(=O)N(C)Cc1cnnn1C[C@H](Cc1ccccc1)NC2=O
-0.0727

Continue with O=C(N1CCCCC1)[C@@]1(CCS(=O)(=O)c2ccccc2)COC(c2ccc(OCCCO)cc2)=N1
2.55
